# Target system: HLA-A*02:01 (Homo sapiens, UniProt P04439, D140Y/D185E/D98H/E176V/E277Q/G131W/G231S/I119V/I121R/I166T/I218V/L300P/L318F/N151K/N90K/P208A/P217A/Q86G/Q94H/R138H/R169H/T345S)
# Procedure summary: MHC binding assay (UV-ligand exchange, beta2m ELISA, peptide exchange yield)
# Particulars: binding of HLA-class I restricted peptides to HLA-A*02:01, ranged by peptide exchange yield (UV-ligand exchange, β2m ELISA)
Measured endpoint: Peptide exchange

Examples from the recorded data:
Substance	Peptide exchange
36 (YVLEDLEVTV; listed as Homo sapiens) [compound 36]	″++″ (≥20% = ++)
21 (VLDELDMEL; listed as Homo sapiens) [compound 21]	″++″ (≥20% = ++)
215 (QLINHLHAV; listed as Homo sapiens) [compound 215]	″+++″ (≥50% = +++)
99 (ALVSKGLATV; listed as Homo sapiens) [compound 99]	″++″ (≥20% = ++)

Now let's try a different one.
Field request: Peptide exchange | item: 200 (LLFGSVQEV; listed as Homo sapiens) [compound 200]
″+++″ (≥50% = +++)
